The following molecules each carry a recorded Kd for KIT(DKIN) (Homo sapiens).
Quantity kind: Kd

{"Molecule": "CSc1ccc(NC(=O)Nc2cc(C(C)(C)C)on2)cc1 [Compound A37]", "Quantity kind": "Kd", "Readout value": "0.1 to 1 µM"}
{"Molecule": "CC(C)(C)c1cc(NC(=O)Nc2ccc3cc4ccccc4cc3c2)no1 [Compound A18]", "Quantity kind": "Kd", "Readout value": "1 to 10 µM"}
{"Molecule": "NC(=O)c1c(NC(=O)Nc2ccc(Cl)c(Cl)c2)sc2c1CCCC2 [Compound Z56]", "Quantity kind": "Kd", "Readout value": "> 10 µM"}
{"Molecule": "CC(C)(C)c1cc(NC(=O)Nc2ccc(OCc3ccc4nonc4c3)cc2)no1 [Compound G55]", "Quantity kind": "Kd", "Readout value": "0.1 to 1 µM"}
{"Molecule": "CC(C)(C)c1cc(NC(=O)Nc2ccc(NC(=O)c3csc(-c4ccc(Cl)cc4)n3)cc2)no1 [Compound N124]", "Quantity kind": "Kd", "Readout value": "0.1 to 1 µM"}
{"Molecule": "CC(C)(C)c1cc(NC(=O)Nc2ccc(C(=O)NCc3ccccc3)cc2)no1 [Compound N89]", "Quantity kind": "Kd", "Readout value": "0.1 to 1 µM"}
{"Molecule": "CC(C)(C)c1cc(NC(=O)Nc2ccc(OCc3ccc(-c4ccccc4)cc3)cc2)no1 [Compound G56]", "Quantity kind": "Kd", "Readout value": "0.1 to 1 µM"}
{"Molecule": "Cc1ccncc1C(=O)Nc1ccc(NC(=O)Nc2cc(C(C)(C)C)on2)cc1 [Compound N104]", "Quantity kind": "Kd", "Readout value": "0.1 to 1 µM"}
{"Molecule": "CC(C)(C)c1cc(NC(=O)Nc2ccc(OCc3ccccc3)cc2)no1 [Compound G31]", "Quantity kind": "Kd", "Readout value": "< 0.1 µM"}
{"Molecule": "CSc1ccc(NC(=O)Nc2cc(C(C)(C)C)no2)cc1 [Compound A39]", "Quantity kind": "Kd", "Readout value": "0.1 to 1 µM"}
{"Molecule": "CC(C)(C)c1cc(NC(=O)Nc2ccc(NC(=O)c3ccc(Cl)cc3Cl)cc2)no1 [Compound N130]", "Quantity kind": "Kd", "Readout value": "1 to 10 µM"}
{"Molecule": "CC(C)(C)c1cc(NC(=O)Nc2ccc(NC(=O)c3cnccn3)cc2)no1 [Compound N136]", "Quantity kind": "Kd", "Readout value": "< 0.1 µM"}
{"Molecule": "CC(C)(C)c1cc(NC(=O)Nc2ccc(C(=O)Nc3ccc(Cl)cc3)cc2)no1 [Compound N156]", "Quantity kind": "Kd", "Readout value": "1 to 10 µM"}
{"Molecule": "Cc1ccc(NC(=O)c2ccc(NC(=O)Nc3cc(C(C)(C)C)on3)cc2)cc1 [Compound N84]", "Quantity kind": "Kd", "Readout value": "< 0.1 µM"}
